Biological target: MAST1, Q9Y2H9
Sequence (Q9Y2H9 962-1065): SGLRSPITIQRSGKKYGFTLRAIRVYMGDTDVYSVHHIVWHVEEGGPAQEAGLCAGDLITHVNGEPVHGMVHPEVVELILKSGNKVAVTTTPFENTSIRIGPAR
Experiment: holdup assay
Set-up: key: below the threshold = too weak to quantify, mostly under pKd 3.1 to 4
Conditions: plain residues with an end cap or a label only (N-terminal biotin on a linker: ado-ado)
Provide the reported pKd of each item.
Reply: number alone, nothing else.

Query: Quote pKd reported for WAKEKQHTRL [SLC17A1, Q14916] please.
Result: 4.89

Query: Respond only with pKd recorded for NNMAFETTHF [SLC5A12, Q1EHB4]
Result: 4.77

Query: Read the entry GNDPDRGTSI [GRID2, O43424] and write its reported pKd.
Result: 3.94

Query: Provide only the value of recorded pKd for PSVYSRSQYV [CLDN8, P56748]
Result: 3.95

Query: Give the reported pKd for this binder. LVEEEEPMNL [HDAC7, Q8WUI4]
Result: 3.61

Query: Find the measured pKd of GSQSQVETEA [FKBP4, Q02790] and report it.
Result: 3.96

Query: Report measured pKd; entry is TKEIPNCTSV [SORCS3, Q9UPU3]
Result: 4.99

Query: Report pKd, nothing else, for this binder: DYSNLRETDI [ADRA1D, P25100]
Result: 4.34
